All values here come from PubChem BioAssay (NCI).

System: HCT-116 colon
Assay: NCI-60 one-dose screen, 48 h
Settings: 10 µM unless noted
Compounds without any hit were thinned out: in the full panel of roughly 83,000, 20% have a hit. Activity calls are given as the source filed them. How the source made its calls: active means growth percent below 10; inactive means the rest.
Allowed answers: true (active), false (inactive)

Reference set, count: 4
CCCCCCCCCCCCCCCC1=NCC[N+]1(CCO)CCO : false
Cc1ccc(-c2nc3ccccc3c(=O)n2/N=C/c2cccc3ccccc23)cc1 : false
Cc1ccccc1CNc1ncnc2[nH]ncc12 : false
Nc1nc2ccc([C@@H]3Nc4ccc5[nH]ncc5c4[C@H]4[C@H]5CCC(C5)[C@H]43)cc2s1 : false

Asked: Hello, I am checking results. What call was entered for COc1ccc2c(c1)N(CCO)C1=C(C(=O)OC1)C2c1cccc(Br)c1 (configuration not stated) ?
Given back: true

Asked: Hello, I am checking results. What call was entered for Cc1nc2ccc(Nc3nc(N4CCOCC4)nc(N4CCN(C)CC4)n3)cc2n1Cc1ccccc1 ?
Given back: false

Asked: Hello, I am checking results. What call was entered for COc1ccc(-c2oc(=O)ccc2-c2cc(OC)c(OC)c(OC)c2)cc1F ?
Given back: false

Asked: Hello, I am checking results. What call was entered for COc1ccc(C2C=C(c3ccc(Cl)cc3)N=C3SC=CN32)cc1 (configuration not stated) ?
Given back: false
